Target: L. acidophilus BSH (rBSH; LaciP) (Lactobacillus acidophilus, UniProt A5HKP3)
Construct: full-length BSH (316 aa), C-terminal His tag, pET-21b(+), E. coli BL21(DE3), Ni-NTA; about 32 kDa on SDS-PAGE
Sequence (A5HKP3 whole entry): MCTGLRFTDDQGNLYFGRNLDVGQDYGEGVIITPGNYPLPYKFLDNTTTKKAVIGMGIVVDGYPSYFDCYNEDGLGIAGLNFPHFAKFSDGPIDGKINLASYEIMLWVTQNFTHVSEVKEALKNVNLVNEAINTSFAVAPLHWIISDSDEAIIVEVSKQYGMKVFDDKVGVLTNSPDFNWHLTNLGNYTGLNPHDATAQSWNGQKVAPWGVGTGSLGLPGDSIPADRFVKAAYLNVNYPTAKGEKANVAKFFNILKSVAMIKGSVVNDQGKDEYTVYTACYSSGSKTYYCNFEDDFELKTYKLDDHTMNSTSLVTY
Experiment: two-step ninhydrin BSH assay (glycine release from glycocholic acid)
Format: biochemical
Where a name gives a salt, the structure may show the parent alone.
Each entry below carries its recorded inhibition at 2500 µM.
// units = %; emit number, no label

INSERT INTO results (compound, measurement_units, recorded_value) VALUES
  ('CC1=CC(=O)c2ccccc2C1=O [Menadione]', '%', 97.9),
  ('CCC[C@@H]1C[C@@H](C(=O)N[C@@H]([C@H]2O[C@H](SC)[C@H](O)[C@@H](O)[C@H]2O)[C@@H](C)O)N(C)C1 [Lincomycin]', '%', 26.8),
  ('C=C1c2cccc(O)c2C(=O)C2=C(O)[C@]3(O)C(=O)C(C(N)=O)=C(O)[C@@H](N(C)C)[C@@H]3[C@@H](O)[C@H]12 [Methacycline Hydrochloride]', '%', 99.2);

Lab note: next compound to report on.
Exercise: Quick check: inhibition at 2500 µM of CN(C)[C@@H]1C(=O)C(C(N)=O)=C(O)[C@@]2(O)C(=O)C3=C(O)c4c(O)cccc4[C@@](C)(O)[C@H]3[C@H](O)[C@@H]12 [Oxytetracycline] ?
Key: 99.6
